Each recorded value in this set is attributed to ChEMBL document CHEMBL5614390.

- Method Description: Metabolic stability in mouse liver microsomes assessed as half-life at 10 uM preincubated for 5 mins followed by NADPH addition and measured upto 60 mins by HPLC analysis
- Assay type: ADME, Microsome
- Run Parameters: time < 65 min
Quantity Name: half-life at 10 µM (h)
A number alone suffices; assume h.

(Q) # input molecule: `C=CC(=O)Nc1cc(Nc2ncc(F)c(-c3ccc4cc(C(=O)NC)n(C(C)C)c4c3)n2)ccc1N1CCN(C)CC1` ; wanted: its half-life at 10 µM
(A) 1.38

---

- Method Description: Metabolic stability in Sprague-Dawley rat liver microsomes assessed as half-life at 10 uM preincubated for 5 mins followed by NADPH addition and measured upto 60 mins by HPLC analysis
- Format: ADME, Microsome
- Run Parameters: time < 65 min
Quantity Name: half-life at 10 µM (h)
Number only, in h; omit the unit.

(Q) Give its half-life at 10 µM value. Item: `C=CC(=O)Nc1cc(Nc2ncc(F)c(-c3ccc4cc(C(=O)NC)n(C(C)C)c4c3)n2)ccc1N1CCN(C)CC1`
(A) 1.48
